Test system: osteoclasts (mouse bone cells), resorption pit formation
Test name: Bone resorption pit formation by mouse bone cells (osteoclasts) on ivory, active type-vitamin D3 stimulation
Type: cell-based, ICR mice
Setup conditions: 100 μM compound, 10 nM active type-vitamin D3, 4 days
resorption pit formation Inhibition Rate with respect to Control Group values, listed per item
Answer with a number only, understood to be in %.

Looking up CC(C)Sc1ccc(SC(P(=O)(O)O)P(=O)(O)O)cc1 , I found its resorption pit formation Inhibition Rate with respect to Control Group recorded as 92.5

Looking up O=P(O)(O)C(Sc1ccc(Sc2ccccc2)cc1)P(=O)(O)O , I found its resorption pit formation Inhibition Rate with respect to Control Group recorded as 74.1

Looking up CSc1ccc(C=C(P(=O)(O)O)P(=O)(O)O)cc1 , I found its resorption pit formation Inhibition Rate with respect to Control Group recorded as 67.8

Looking up CSc1ccc(CC(P(=O)(O)O)P(=O)(O)O)cc1 , I found its resorption pit formation Inhibition Rate with respect to Control Group recorded as 87.0

Looking up CSc1ccccc1SC(P(=O)(O)O)P(=O)(O)O , I found its resorption pit formation Inhibition Rate with respect to Control Group recorded as 77.8

Looking up CSc1ccc(SC(P(=O)(O)O)P(=O)(O)O)cc1 , I found its resorption pit formation Inhibition Rate with respect to Control Group recorded as 92.6
